Where these numbers come from: patent US20060135769A1

Measured Parameter: melting point (°C)

A. Cn1cncc1C(N)(c1ccc(Cl)cc1)c1ccc2c(c1)c(-c1nc(-c3ccccc3)cs1)cc(=O)n2C (stereo not shown)
B. Cn1c(=O)cc(CCc2ccc(Cl)s2)c2cc(C(N)(c3ccc(Cl)cc3)c3cccnc3)ccc21 (stereo not shown)
Ask: Select one. Lower melting point: A or B Mark your selection by writing its label.
Result: B

----------
Measured Parameter: melting point (°C)

Worked examples follow.
[[record]]
compound = "CC(=O)NC(c1ccc(Cl)cc1)(c1ccc2c(c1)c(-c1nc(-c3ccccc3)cs1)cc(=O)n2C)c1cncn1C (stereo not shown) [Example B8]"
test_value = 244

[[record]]
compound = "Cn1cncc1C(c1ccc(Cl)cc1)c1ccc2c(c1)c(-c1nc(-c3ccccc3)cs1)cc(=O)n2C (stereo not shown) [Example B6]"
test_value = 171

[[record]]
compound = "O=c1cc(-n2ccnc2)c2cc(C(c3ccc(Cl)cc3)n3ccnc3)ccc2[nH]1 (stereo not shown) [Example B1]"
test_value = 242.3


I. Cn1cncc1C(O)(c1ccc(Cl)cc1)c1ccc2c(c1)c(-c1nc(-c3ccccc3)cs1)cc(=O)n2C (stereo not shown) [Example B4]
II. Cn1cncc1C(O)(c1ccc(Cl)cc1)c1ccc2c(c1)c(CCc1ccc(Cl)s1)cc(=O)n2C (stereo not shown) [Example B10]
Ask: Select one. Lower melting point: I or II Mark your selection by writing its label.
Result: II
(II: 128 °C, I: 200 °C)

P. Cn1c(=O)cc(-c2nc(-c3ccccc3)cs2)c2cc(C(c3ccc(Cl)cc3)c3cnc(-c4ccccc4)[nH]3)ccc21 (stereo not shown) [Example B9 (F2)]
Q. Cn1c(=O)cc(CCc2ccc(Cl)s2)c2cc(C(O)(c3ccc(Cl)cc3)c3cccnc3)ccc21 (stereo not shown) [Example B13]
Ask: Select one. Lower melting point: P or Q Mark your selection by writing its label.
Result: Q
